Assay: Total drug level in spontaneously hypertensive rat brain at 10 mg/kg measured after 24 hrs
Assay type: ADME, organism-based
Parameters: dose 10 mg/kg
Conditions: read-out: Drug uptake
So I've got a bunch of compounds here, and I need their concentration at 24 h values.
Use µM as the unit, but write only the number.

# concentration at 24 h lookup, item `CCS(=O)(=O)CCC12CCC(c3nnc(-c4ccccc4C(F)(F)F)n3C)(CC1)CC2`
0.7

Requested read-out: concentration at 24 h. Entry: `CCS(=O)(=O)CC12CCC(c3nnc(-c4ccccc4C(F)(F)F)n3C)(CC1)CC2`
0.8

Using the record for `Cn1c(-c2ccccc2C(F)(F)F)nnc1C12CCC(c3noc(C(C)(F)F)n3)(CC1)CC2` , report its concentration at 24 h.
55.4

Please give the measured concentration at 24 h for this compound: `Cn1c(-c2ccccc2C(F)(F)F)nnc1C12CCC(c3nc(-c4ccc(F)cc4)no3)(CC1)CC2`
39.1
